Tested on: aptamer-B (theophylline aptamer) (RNA, aptamer, 3'-terminal (A)10 spacer is DNA (positions 34-43)) GGCGAUACCAGCCGAAAGGCCCUUGGCAGCGUC
assay_summary: surface plasmon resonance
applied_conditions: 150 mM NaCl, 5 mM MgCl2; 10 mM HEPES pH 7.4, 0.01-0.1% DMSO, 25°C
measured_attribute: Kd

- item_smiles: "COc1cc2c(O)ncnc2cc1OCC1CCN(C)CC1"
  measured_attribute: "Kd"
  experimental_value: "23 nM"
- item_smiles: "COc1cc2c(O)ncnc2cc1OCCCN1CCCCC1"
  measured_attribute: "Kd"
  experimental_value: "9.1 nM"
- item_smiles: "COc1cc2ncnc(N3CCN(CCCCO)CC3)c2cc1OC"
  measured_attribute: "Kd"
  experimental_value: "280 nM"
- item_smiles: "Cn1c(=O)c2[nH]cnc2n(C)c1=O"
  measured_attribute: "Kd"
  experimental_value: "670 nM"
- item_smiles: "Cn1c(=O)cnc2c(N)nc(=O)[nH]c21"
  measured_attribute: "Kd"
  experimental_value: "2 nM"

* * *

Tested on: aptamer-F (theophylline aptamer) (RNA, aptamer) GGCGAUACCAGCCGAAAGGCCCUUGGCAGCGUC
assay_summary: fluorescence strand invasion assay
applied_conditions: 10 mM NaCl, 5 mM MgCl2; 20 mM HEPES pH 7.5, 0.01% Tween-20; 37°C; inhibits invasion by BBQ-650 2'-F quencher strand (Q-invader); apparent
Threshold-based label: IC50 under 1 µM gives TRUE, IC50 not under 1 µM gives FALSE.

- item_smiles: "Cn1c(=O)cnc2c(N)nc(=O)[nH]c21"
  classification: "TRUE"
- item_smiles: "COc1cc2ncnc(N3CCN(CCCCO)CC3)c2cc1OC"
  classification: "FALSE"
- item_smiles: "Cn1c(=O)c2[nH]cnc2n(C)c1=O"
  classification: "FALSE"
- item_smiles: "COc1cc2c(O)ncnc2cc1OCC1CCN(C)CC1"
  classification: "FALSE"
- item_smiles: "COc1cc2c(O)ncnc2cc1OCCCN1CCCCC1"
  classification: "TRUE"
